The molecules listed here are annotated with their HepG2 1uM growth rep2.
# Test system: HepG2-A16-CD81EGFP cells
# Condition: HepG2, 1 µM compound treatment (10 mM stocks), replicate 2, normalized, average of 2 wells
Experimental endpoint: HepG2 1uM growth rep2 (%)

[
  {
    "Cpd smiles": "Cc1ccc(-c2c(C(=O)N/N=C/c3cccc(Cl)c3)nnn2-c2nonc2N)cc1",
    "Readout value": 91
  },
  {
    "Cpd smiles": "N#Cc1c(N2CCN(c3ccc(F)cc3)CC2)nc(N)c2c(N)nc3c(c12)CC(=O)N3C1CC1",
    "Readout value": 97
  },
  {
    "Cpd smiles": "COc1ccccc1[C@@]1(C)ON(c2ccccc2C(F)(F)F)C1=O",
    "Readout value": 96
  },
  {
    "Cpd smiles": "CCOC(=O)c1sc2nc3c(SCCC#N)cc(C(=O)c4cc(F)ccc4O)cn3c(=O)c2c1C",
    "Readout value": 92
  }
]

###

# Method: in vitro
# Condition: human, hepg2 cells
Parameter: CC50 at 48 h. Scope: all listed entries.

[
  {
    "Compound": "Cc1ccc(CNCc2cc3c(C(C)(C)C)nn(-c4ccccc4)c3[nH]c2=O)cc1",
    "Units of measure": "µM",
    "Qualifier": "=",
    "CC50 at 48 h": 43.2
  },
  {
    "Compound": "CN(C)CCCNc1c2ccccc2nc2ccccc12",
    "Units of measure": "µM",
    "Qualifier": "=",
    "CC50 at 48 h": 12.2
  },
  {
    "Compound": "O=C1CCN(Cc2ccc(F)cc2F)CCCC(c2nc(-c3cnccn3)no2)CCN1 (stereo not drawn)",
    "Units of measure": "µM",
    "Qualifier": "=",
    "CC50 at 48 h": 12.2
  },
  {
    "Compound": "COc1ccccc1-c1ccc(CN2CCCC(c3nc4ccc(F)cc4c(=O)[nH]3)C2)cc1 (stereo not drawn)",
    "Units of measure": "µM",
    "Qualifier": "=",
    "CC50 at 48 h": 43.2
  },
  {
    "Compound": "Cc1nc(-c2ccccc2)cc([C@H]2CN3CC[C@H]2C[C@@H]3CN(Cc2ccco2)Cc2ccco2)n1",
    "Units of measure": "µM",
    "Qualifier": "=",
    "CC50 at 48 h": 30.6
  },
  {
    "Compound": "CCOC(=O)c1ccc(N2C(=O)c3[nH]nc(-c4ccc(OC)cc4)c3C2c2cccc(O)c2)cc1 (stereo not drawn)",
    "Units of measure": "µM",
    "Qualifier": "=",
    "CC50 at 48 h": 43.2
  },
  {
    "Compound": "CC1CCCN(Cc2c(O)ccc3c4c(c(=O)oc23)CCCC4)C1 (stereo not drawn)",
    "Units of measure": "µM",
    "Qualifier": "=",
    "CC50 at 48 h": 12.2
  },
  {
    "Compound": "N=c1c2c(n(Cc3ccc(F)cc3)c3c1CCC3)CCCC2",
    "Units of measure": "µM",
    "Qualifier": "=",
    "CC50 at 48 h": 17.2
  },
  {
    "Compound": "CN(C)c1ccc2ncc(Nc3ccc(Oc4ccccc4)cc3)n2n1",
    "Units of measure": "µM",
    "Qualifier": ">",
    "CC50 at 48 h": 57
  },
  {
    "Compound": "COc1ccc(CN2CCCn3nc(C)c(-c4ccccc4Oc4ccccc4)c32)cc1O",
    "Units of measure": "µM",
    "Qualifier": "=",
    "CC50 at 48 h": 43.2
  },
  {
    "Compound": "Fc1ccc(CN2CC[C@H](c3nc4ccc(C(F)(F)F)cc4[nH]3)C2)cc1F",
    "Units of measure": "µM",
    "Qualifier": "=",
    "CC50 at 48 h": 49.8
  },
  {
    "Compound": "CCC1CCCCN1CCCNC(=O)c1ccc2c(c1)sc1nc(-c3ccc(F)cc3)cn12 (stereo not drawn)",
    "Units of measure": "µM",
    "Qualifier": "=",
    "CC50 at 48 h": 34.3
  },
  {
    "Compound": "CCn1c(/C=C/c2cc(Br)ccc2O)nc2ccccc2c1=O",
    "Units of measure": "µM",
    "Qualifier": "=",
    "CC50 at 48 h": 13.7
  },
  {
    "Compound": "O=c1c2ccccc2nc2n1CCN2Cc1ccc(Cl)cc1",
    "Units of measure": "µM",
    "Qualifier": "=",
    "CC50 at 48 h": 43.2
  },
  {
    "Compound": "Cc1nc(-c2ccc(Cl)cc2)sc1CCNC(=O)c1ccco1",
    "Units of measure": "µM",
    "Qualifier": "=",
    "CC50 at 48 h": 6.85
  },
  {
    "Compound": "Cc1cccc(Nc2nc(NCc3ccco3)c3ccccc3n2)c1",
    "Units of measure": "µM",
    "Qualifier": "=",
    "CC50 at 48 h": 43.2
  },
  {
    "Compound": "Cc1cc(N2CCN(C)CC2)nc2ccc(NC(=O)Nc3ccccc3Br)cc12",
    "Units of measure": "µM",
    "Qualifier": "=",
    "CC50 at 48 h": 43.2
  },
  {
    "Compound": "COc1ccc(C2=CC(c3ccc(F)cc3)n3ncc(C(=O)Nc4ccc(C)cc4)c3N2)cc1 (stereo not drawn)",
    "Units of measure": "µM",
    "Qualifier": "=",
    "CC50 at 48 h": 30.6
  },
  {
    "Compound": "CC(C)c1nc(-c2ccc(OC3CCN(C(=O)c4cc(F)ccc4F)C3)cc2)no1 (stereo not drawn)",
    "Units of measure": "µM",
    "Qualifier": "=",
    "CC50 at 48 h": 34.3
  },
  {
    "Compound": "O=C(Nc1ccc(Nc2ccncc2)cc1)c1ccc(Nc2ccnc3ccc([N+](=O)[O-])cc23)cc1[N+](=O)[O-]",
    "Units of measure": "µM",
    "Qualifier": "=",
    "CC50 at 48 h": 27.3
  },
  {
    "Compound": "O=C(NC(c1ccc(Cl)cc1)c1cc(Cl)c2cccnc2c1O)c1cccnc1 (stereo not drawn)",
    "Units of measure": "µM",
    "Qualifier": "=",
    "CC50 at 48 h": 43.2
  },
  {
    "Compound": "Cc1nn2c(c1-c1ccccc1-c1ccccc1)N(Cc1cccc(O)c1)CCC2",
    "Units of measure": "µM",
    "Qualifier": ">",
    "CC50 at 48 h": 57
  },
  {
    "Compound": "Cc1ccc(NC(=O)CSc2n[nH]c(-c3ccccn3)n2)cc1",
    "Units of measure": "µM",
    "Qualifier": "=",
    "CC50 at 48 h": 24.3
  },
  {
    "Compound": "COc1cc2c(cc1OCc1ccccc1)N(C(=O)c1cc3ccccc3n1C)CC21CCN(C)CC1",
    "Units of measure": "µM",
    "Qualifier": "=",
    "CC50 at 48 h": 43.2
  },
  {
    "Compound": "Cc1cccc(CN2CCCC(O)(CNCc3ncccc3C)C2=O)c1 (stereo not drawn)",
    "Units of measure": "µM",
    "Qualifier": "=",
    "CC50 at 48 h": 38.5
  },
  {
    "Compound": "CCCn1c2c(c(=N)c3c1CCC3)CCC2",
    "Units of measure": "µM",
    "Qualifier": ">",
    "CC50 at 48 h": 57
  },
  {
    "Compound": "CC1=C[C@@H](CNCc2cccnc2)[C@H](C(C)C)C[C@H]1Cc1nnc(-c2ccc(N(C)C)cc2)o1",
    "Units of measure": "µM",
    "Qualifier": "=",
    "CC50 at 48 h": 34.3
  },
  {
    "Compound": "O=C1CCN(Cc2ccc(C(F)(F)F)cc2)CCCC(c2nc(-c3cccnc3)no2)CCN1 (stereo not drawn)",
    "Units of measure": "µM",
    "Qualifier": "=",
    "CC50 at 48 h": 27.3
  },
  {
    "Compound": "COc1ccc(-[n+]2c(-c3ccc(Br)cc3)cn3c2CCc2ccccc2-3)cc1.[Br-]",
    "Units of measure": "µM",
    "Qualifier": "=",
    "CC50 at 48 h": 43.2
  },
  {
    "Compound": "N=c1n(CCN2CCCCC2)c2ccccc2n1CC(O)COc1ccc(Cl)cc1Cl (stereo not drawn)",
    "Units of measure": "µM",
    "Qualifier": "=",
    "CC50 at 48 h": 30.6
  },
  {
    "Compound": "Cc1cc(N)c2cc(NC(=O)/C=C/c3ccccc3Cl)ccc2n1",
    "Units of measure": "µM",
    "Qualifier": "=",
    "CC50 at 48 h": 43.2
  },
  {
    "Compound": "Cc1ccc(NC(=O)C2CCN(c3cc(C(F)(F)F)ncn3)CC2)cc1",
    "Units of measure": "µM",
    "Qualifier": "=",
    "CC50 at 48 h": 34.3
  },
  {
    "Compound": "O=c1c2nc(-c3cccc(O)c3)ccc2ncn1C1CC1",
    "Units of measure": "µM",
    "Qualifier": ">",
    "CC50 at 48 h": 57
  }
]
